Listing: log10 of TGI of selected molecules
System: KM12 colon
Assay: NCI tumour cell line growth inhibition, 48 h
A value of 2 here means TGI of 100 in µM, since values are log10.

// below: answered molecules
- molecule: "CN1CCN(Cc2ccc(NC(=O)c3cncc(C#Cc4cnc(N)c5ccncc45)c3)cc2C(F)(F)F)CC1"
  log10 of TGI: 0.74
- molecule: "CCN1CCC(CCOC)(CN2c3ccccc3Sc3ccc(Cl)cc32)C1 (stereo unspecified)"
  log10 of TGI: 0.54
- molecule: "COC(=O)C1=CSC2(S1)C(C(=O)OC)=CSc1c2ssc1=Nc1ccccc1 (stereo unspecified)"
  log10 of TGI: 1.00
- molecule: "CN(C)c1ccc(N=Nc2ccc3nc[nH]c3c2)cc1"
  log10 of TGI: 1.81

Input: KM12 colon / log10 of TGI / "O=C(/C(=C/c1ccccc1)CN1CCCCC1)c1ccccc1" : value?
Output: 0.84

* * *

Listing: TGI of selected molecules
System: ACHN renal
Test: NCI tumour cell line growth inhibition, 48 h
Express your answer in µM, writing the number without its unit.

- molecule: "O=C(C1CCCCC1)[C@@H]1[C@]2(C(=O)NC3CCCCC32)[C@@H]2CCCN2[C@@]12C(=O)NC1CCC(Cl)CC12 (some centres undefined)"
  study_target: "ACHN renal"
  unit_text: "µM"
  data_value: 222
- molecule: "CN(C(=O)Cc1cc(Cl)c(Cl)cc1N=C=S)[C@H]1CCCC[C@@H]1N1CCCC1"
  study_target: "ACHN renal"
  unit_text: "µM"
  data_value: 28.7
- molecule: "O=C1C(=O)c2c(nc3ccc(Cl)cn23)-c2ccccc21"
  study_target: "ACHN renal"
  unit_text: "µM"
  data_value: 1.88
- molecule: "C=C1CC2OC2(C(=O)O[C@H]2CCC3[C@@H]4CCC5=CC(=O)CC[C@]5(C)C4CC[C@@]32C)C1=O (some centres undefined)"
  study_target: "ACHN renal"
  unit_text: "µM"
  data_value: 16.2
- molecule: "O=S(=O)(Sc1ccc(Cl)cc1)c1ccc(Cl)cc1"
  study_target: "ACHN renal"
  unit_text: "µM"
  data_value: 31.2
- molecule: "Cc1c2cc[n+](CCN3CCCCC3)cc2c(C)c2c1[nH]c1ccc(O)cc12"
  study_target: "ACHN renal"
  unit_text: "µM"
  data_value: 22.9
- molecule: "CCOC(=O)c1sc2c(c1OC(=O)c1cccs1)c(=O)n(-c1ccccc1)c(=S)n2-c1ccccc1"
  study_target: "ACHN renal"
  unit_text: "µM"
  data_value: 37.6
- molecule: "CNC(=O)OCc1c(COC(=O)NC)c(C)n(-c2ccc(Br)cc2)c1C"
  study_target: "ACHN renal"
  unit_text: "µM"
  data_value: 12.7
- molecule: "O=C(c1ccccc1)c1ccc(COc2ccc(C(c3c(O)c4ccccc4oc3=O)c3c(O)c4ccccc4oc3=O)cc2)cc1"
  study_target: "ACHN renal"
  unit_text: "µM"
  data_value: 38.1
- molecule: "CNC(=O)N1CN(c2ccccc2)C2(CCN(CCCC(=O)c3ccc(F)cc3)CC2)C1=O"
  study_target: "ACHN renal"
  unit_text: "µM"
  data_value: 75.5

Input: I have this molecule here, "O=c1oc2ccccc2c(Nc2ccc3c(c2)S(=O)(=O)c2ccccc2O3)c1[N+](=O)[O-]" , and I need its recorded TGI.
Output: 70.2

* * *

Tested on: HT29 colon
Test: NCI tumour cell line growth inhibition, 48 h
result_type: TGI

// below: answered molecules
- smiles_repr: "N#Cc1c(N)oc(-c2cccc([N+](=O)[O-])c2)c1C#N"
  data_value: "37.6 µM"
- smiles_repr: "Cn1c(/C=C(\\O)c2ccc(Cl)cc2)nc2ccccc21"
  data_value: "> 100 µM"

Please look at the following molecule next.
Input: I have this molecule here, "COc1cc(OC)c(/C=C2\N=C(C)N(Nc3nnc(NN4C(=O)/C(=C/c5c(OC)cc(OC)cc5OC)N=C4C)c4ccccc34)C2=O)c(OC)c1" , and I need its recorded TGI.
Output: > 100 µM

* * *

Test system: DU-145 prostate
Assay: NCI tumour cell line growth inhibition, 48 h
result_type: TGI (µM)
Express your answer in µM, writing the number without its unit.

// below: answered compounds
- compound: "COc1cccc(/C=C2/Sc3scc(-c4ccccc4)[n+]3C2=O)c1O"
  study_target: "DU-145 prostate"
  result_type: "TGI"
  unit_text: "µM"
  data_value: 56.9
- compound: "O=C(NN1C(=O)CSC12CCCCC2)c1[nH]c2ccc(F)cc2c1-c1ccccc1"
  study_target: "DU-145 prostate"
  result_type: "TGI"
  unit_text: "µM"
  data_value: 45.2
- compound: "O=C(c1ccccc1)C(CN1CCOCC1)c1ccccc1 (centres undefined)"
  study_target: "DU-145 prostate"
  result_type: "TGI"
  unit_text: "µM"
  data_value: 2.44

Please look at the following compound next.
Input: DU-145 prostate / TGI / "CCN(C(=O)N1CCN(c2cc3c(cc2F)c(=O)c(C(=O)O)cn3C2CC2)CC1)c1nc(-c2ccc(C)cc2)cs1" : value?
Output: 82.8

* * *

Listing: TGI of selected compounds
Test system: HCT-116 colon
Test: NCI tumour cell line growth inhibition, 48 h
Express your answer in µM, writing the number without its unit.

// below: answered compounds
- compound: "CC1=C(N2CC2)C(=O)c2nc3n(c2C1=O)CCC3OC(=O)CCl (stereo unspecified)"
  unit_text: "µM"
  data_value: 0.383
- compound: "Clc1cc(Cl)c(OCC#CI)cc1Cl"
  unit_text: "µM"
  data_value: 3.47
- compound: "CN(C)CCNC(=O)c1cccc2c(NCC(=O)O)c3ccccc3nc12"
  unit_text: "µM"
  data_value: 67.4
- compound: "O=C(/C(=C/c1ccccc1)CN1CCCCC1)c1ccccc1"
  unit_text: "µM"
  data_value: 1.44

Please look at the following compound next.
Input: I have this compound here, "CC(=O)NC1=C(OS(=O)(=O)c2ccc(C)cc2)CN(C)C1=O" , and I need its recorded TGI.
Output: 12

* * *

Tested on: XF 498 CNS
Experiment: NCI tumour cell line growth inhibition, 48 h
Listing: TGI of selected compounds

- compound: "Cn1c(/C=C(\\O)c2ccc(Cl)cc2)nc2ccccc21"
  study_target: "XF 498 CNS"
  result_type: "TGI"
  data_value: "> 100 µM"
- compound: "COc1cc2c(cc1OC(=O)CC(C)O)C1C(OC2=O)C(OC(C)=O)C=C2CCN(C)[C@H]21 (some centres not stated)"
  study_target: "XF 498 CNS"
  result_type: "TGI"
  data_value: "38.6 µM"
- compound: "COc1ccc(C2=C(Cl)c3cc(OC)c(OC)cc3C2Cl)cc1OC (configuration not stated)"
  study_target: "XF 498 CNS"
  result_type: "TGI"
  data_value: "29.4 µM"

Input: I have this compound here, "Cc1ccc(Oc2ccc(C)cc2[N+](=O)[O-])cc1" , and I need its recorded TGI.
Output: 64.5 µM

Input: What do you have for "Cc1c(C#N)c(=O)[nH]c(=O)n1CCN1CCN(C(=O)NCCCCCCNC(=O)N2CCN(CCn3c(C)c(C#N)c(=O)[nH]c3=O)CC2)CC1" ?
Output: > 100 µM

Input: What do you have for "CCCCCCCSc1nc2c(C(=O)OCC)ncn2c2ccccc12" ?
Output: > 100 µM

* * *

Tested on: A498 renal
Assay: NCI tumour cell line growth inhibition, 48 h
result_type: TGI

// below: answered compounds
- compound: "CCOC(=O)/C(Cl)=C(\\C)Nc1nc2c(ccc3ccccc32)s1"
  TGI: "> 100 µM"
- compound: "Cc1sc(Cc2ccccc2)nc1-c1ccc(N)cc1"
  TGI: "> 100 µM"
- compound: "CC1(CCC2C=CCC2)CCCNC1=S (stereo not given)"
  TGI: "> 10 µM"
- compound: "O=C1C2CC=CCC2C(=O)N1n1c(-c2ccccc2)n[nH]c1=O (stereo not given)"
  TGI: "> 100 µM"

Please look at the following compound next.
Input: I have this compound here, "C[C@@H]1CC[C@H]2C(COCCOCC3=C(C(F)(F)F)O[C@@H]4O[C@@]5(C)CC[C@H]6[C@H](C)CC[C@@H]3[C@@]46OO5)=C(C(F)(F)F)O[C@@H]3O[C@@]4(C)CC[C@@H]1[C@]32OO4" , and I need its recorded TGI.
Output: > 96.9 µM

* * *

System: UACC-257 melanoma
Test: NCI tumour cell line growth inhibition, 48 h
result_type: TGI (µM)
Express your answer in µM, writing the number without its unit.

- molecule: "CN(C)c1ccc(N=Nc2ccc3nc[nH]c3c2)cc1"
  result_type: "TGI"
  data_value: 59.5
- molecule: "O[C@H]1CO[C@H]2[C@@H]1OC[C@@H]2Oc1ccc(Nc2ccnc(Nc3ccc(O[C@H]4CO[C@H]5[C@@H]4OC[C@@H]5O)c(Cl)c3)n2)cc1Cl"
  result_type: "TGI"
  data_value: 10.2
- molecule: "O=C(/C(=C/c1ccccc1)CN1CCCCC1)c1ccccc1"
  result_type: "TGI"
  data_value: 3.35
- molecule: "Clc1cc(Cl)c(OCC#CI)cc1Cl"
  result_type: "TGI"
  data_value: 11.9
- molecule: "O=C(NN1C(=O)CSC12CCCCC2)c1[nH]c2ccc(F)cc2c1-c1ccccc1"
  result_type: "TGI"
  data_value: 56.9

Input: UACC-257 melanoma / TGI / "NC(N)=N/N=C/c1c(-c2ccccc2)nc2n1ccc1nc(-c3ccccc3)c(/C=N/N=C(N)N)n12" : value?
Output: 81.8

Input: What do you have for "O=c1oc2ccccc2c(Nc2ccc3c(c2)S(=O)(=O)c2ccccc2O3)c1[N+](=O)[O-]" ?
Output: 58.8

Input: What do you have for "[N-]=[N+]=Nc1c(-c2ccccc2)c(Cl)nc2ccccc12" ?
Output: 59.8

Input: What do you have for "CN(C)CCNc1nc(-c2ccc3ccccc3c2)nc2nc[nH]c12" ?
Output: 19.5

Input: What do you have for CCN1CCC(CCOC)(CN2c3ccccc3Sc3ccc(Cl)cc32)C1 (centres undefined) ?
Output: 3.87
